Target: T1, human B7-H7 expressed on the cell surface (human, UniProt Q9UM44 23-414)
T1 construct: also called hB7-H7; HHLA2
T1 sequence: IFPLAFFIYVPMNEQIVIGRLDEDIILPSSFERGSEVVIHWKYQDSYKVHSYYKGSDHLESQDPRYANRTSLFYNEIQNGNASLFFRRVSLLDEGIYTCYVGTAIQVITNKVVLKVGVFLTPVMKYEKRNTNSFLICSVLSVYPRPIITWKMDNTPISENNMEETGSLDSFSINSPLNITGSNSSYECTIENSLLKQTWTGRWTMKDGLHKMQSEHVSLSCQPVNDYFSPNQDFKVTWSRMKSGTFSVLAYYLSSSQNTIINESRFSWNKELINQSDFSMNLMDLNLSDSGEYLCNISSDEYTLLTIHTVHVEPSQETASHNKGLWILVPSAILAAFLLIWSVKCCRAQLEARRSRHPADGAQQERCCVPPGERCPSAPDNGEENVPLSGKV
Test: FACS on HEK-293T cells expressing human B7-H7
property_label: MFI (MFI)
Numeric answer only, unit MFI assumed.

binder="anti-B7-H7 antibody 28F5 (antibody, V domains shown, Mouse hybridoma antibody) VH: QVQLKESGPGLVAPSQSLSITCTVSGFSLTGYGVNWVRQPPGKGLEWLGVIWGDGSTDYNSVLKSRLSISKDNSKSQVFLKMNSLQTDDTARYYCAREATEYLYWYFDVWGAGTTVTVSS VL: DIVLTQSPASLAVSLGQRATISCRASESVEYYGSSLMQWYQQKPGQPPKLLIFAASNVESGVPPRFSGSGSGTDFNLNIHPVDEDDIAMYFCQQGRRVPWTFGGGTKLEIK" endpoint_unit=MFI endpoint_value=152

Query: Item anti-B7-H7 antibody 5F7 (antibody, V domains shown, Mouse hybridoma antibody) VH: QEQLQQPGTELVKPGASVKISCKASGYTFSSYSMHWVKLTPGQGLEWMGTIYPGNENTSYNQKFKGKATLTADKSSSTAYMQLSSLTSEDSAVYYCARGGYYFDYWGQGTTLTVSS VL: DIVMTQSHKFLSTSVGDRVSITCKASQDVSTAVAWYQQKPGQSPKLLIYWASTRHTGVSDRFTGSGSGTDFTLTISSVQAEDLALYYCQQHFDIPYWFGGGTKLEIK : provide MFI
Response: 163
